experiment: WST-1 cell viability, normal kidney cell line HEK293; format: cell-based; settings: human, HEK293 normal kidney cells, HEK293, run 0607-30 min, read-out: survival rate (inhibition effect)
Reported Endpoint: viability at 72 h, 10 µM (%)
Respond numerically; units are % and should not be typed.

q: // returns reported viability at 72 h, 10 µM for input Fc1ccc([C@@H]2CCNC[C@H]2COc2ccc3c(c2)OCO3)cc1 [Paroxetine]
a: 76
